System: muMax20 (Max(13-93) K31hArg/K57hArg, M65Nle)
Test: PBM 8-mer E-score (E-score (rank enrichment, -0.5 to 0.5)); higher = stronger preferential binding
Over roughly 33,000 sequences, “E-score (rank enrichment, -0.5 to 0.5)” has its median near -0.0068; the highest 2% begin near 0.24. The list comes from a sample in which the highest values are over-represented; it also holds close analogues and randomly drawn sequences.
Param threshold (0.1) applies to PBM 8-mer E-score; output T when value >= threshold, F when value < threshold.

Confirm if PBM 8-mer E-score reported for the sequence GGATAGCC is 0.1 or above.
F

Confirm if PBM 8-mer E-score reported for the sequence TATGCCCA is 0.1 or above.
F

Confirm if PBM 8-mer E-score reported for the sequence AAGAGCTA is 0.1 or above.
T

Confirm if PBM 8-mer E-score reported for the sequence ACCATACA is 0.1 or above.
T

Confirm if PBM 8-mer E-score reported for the sequence CATCGGGC is 0.1 or above.
F

Confirm if PBM 8-mer E-score reported for the sequence ATCATACG is 0.1 or above.
T

Confirm if PBM 8-mer E-score reported for the sequence ATCTTGAG is 0.1 or above.
T

Confirm if PBM 8-mer E-score reported for the sequence CTATCTTC is 0.1 or above.
T

Confirm if PBM 8-mer E-score reported for the sequence GATAAAAA is 0.1 or above.
T

Confirm if PBM 8-mer E-score reported for the sequence ATATCTTC is 0.1 or above.
T

Confirm if PBM 8-mer E-score reported for the sequence CATAAAAG is 0.1 or above.
T

Confirm if PBM 8-mer E-score reported for the sequence GATAAAGA is 0.1 or above.
T

Confirm if PBM 8-mer E-score reported for the sequence AACATACT is 0.1 or above.
F

Confirm if PBM 8-mer E-score reported for the sequence ATCTTGAA is 0.1 or above.
F

Confirm if PBM 8-mer E-score reported for the sequence CCCGCAGC is 0.1 or above.
F

Confirm if PBM 8-mer E-score reported for the sequence CGAGCCGA is 0.1 or above.
F

Confirm if PBM 8-mer E-score reported for the sequence GCAGCCAC is 0.1 or above.
F

Confirm if PBM 8-mer E-score reported for the sequence AGTAAACA is 0.1 or above.
T

Confirm if PBM 8-mer E-score reported for the sequence CTGTCCTC is 0.1 or above.
F

Confirm if PBM 8-mer E-score reported for the sequence GGTAAACA is 0.1 or above.
T

Confirm if PBM 8-mer E-score reported for the sequence CATAAAAA is 0.1 or above.
T

Confirm if PBM 8-mer E-score reported for the sequence GTCATACA is 0.1 or above.
T
